Data provenance is patent US20060252740A1.

experiment: clinical; details: human, in vivo, 100 mg/m2, Vss, Cohorts 1 & 2, 17-AAG 100 mg/m^2; Median
Measured metric: Vd (L)
Express it in L; write the number only.

Name the recorded Vd for "C=CCNC1=C2C[C@@H](C)C[C@H](OC)[C@H](O)[C@@H](C)/C=C(\C)[C@H](OC(N)=O)[C@@H](OC)/C=C\C=C(/C)C(=O)NC(=CC1=O)C2=O" . 159

====

Test: clinical
Settings: human, plasma, intravenous, 150 mg/m2, Clearance, Cohorts 3 & 4, 17-AAG 150 mg/m^2; Mean
Procedure: PK assessments included the following tests. […] The total number of PK samples collected was approximately 115 mL of whole blood (7-8 tablespoons). If a patient experienced a potentially drug-related SAE, additional PK samples were collected. Blood was drawn from the contralateral arm to the infusion site using an indwelling catheter to avoid multiple needle sticks. […] The blood tube was inverted several times and the tube placed in wet ice immediately pending separation of the plasma. […]
Measured metric: Clearance (mL/min)
# number only, unit mL/min dropped from output

So what does the record say about Clearance for "C=CCNC1=C2C[C@@H](C)C[C@H](OC)[C@H](O)[C@@H](C)/C=C(\C)[C@H](OC(N)=O)[C@@H](OC)/C=C\C=C(/C)C(=O)NC(=CC1=O)C2=O" ? 850

====

experiment: clinical; settings: human, plasma, intravenous, 150 mg/m2, MRT, Cohorts 3 & 4, 17-AAG 150 mg/m^2; Mean
Measured metric: MRT (h)
Note: unit h is implicit; provide only the numeric part.

Quick one: MRT of "C=CCNC1=C2C[C@@H](C)C[C@H](OC)[C@H](O)[C@@H](C)/C=C(\C)[C@H](OC(N)=O)[C@@H](OC)/C=C\C=C(/C)C(=O)NC(=CC1=O)C2=O" ? 2.89

====

test: clinical; conditions: human, plasma, intravenous, 150 mg/m2, MRT, Cohorts 3 & 4, 17-AAG 150 mg/m^2; Median
Measured metric: MRT (h)
# output: bare number, implied unit h

# query: MRT of entry "C=CCNC1=C2C[C@@H](C)C[C@H](OC)[C@H](O)[C@@H](C)/C=C(\C)[C@H](OC(N)=O)[C@@H](OC)/C=C\C=C(/C)C(=O)NC(=CC1=O)C2=O" 2.9

====

assay: clinical; details: human, plasma, intravenous, 100 mg/m2, Vz, Cohorts 1 & 2, 17-AAG 100 mg/m^2; Mean
Measured metric: Vd (L)
Form entry: value (L) — number only.

Sample "C=CCNC1=C2C[C@@H](C)C[C@H](OC)[C@H](O)[C@@H](C)/C=C(\C)[C@H](OC(N)=O)[C@@H](OC)/C=C\C=C(/C)C(=O)NC(=CC1=O)C2=O" — what was its Vd? 193

====

Assay: clinical
Settings: human, in vivo, 150 mg/m2
Description: PK assessments included the following tests. […] The total number of PK samples collected was approximately 115 mL of whole blood (7-8 tablespoons). If a patient experienced a potentially drug-related SAE, additional PK samples were collected. Blood was drawn from the contralateral arm to the infusion site using an indwelling catheter to avoid multiple needle sticks. […] The blood tube was inverted several times and the tube placed in wet ice immediately pending separation of the plasma. […]
Measured metric: half-life (h)
A number alone suffices; assume h.

Which value of half-life has been reported for "C=CCNC1=C2C[C@@H](C)C[C@H](OC)[C@H](O)[C@@H](C)/C=C(\C)[C@H](OC(N)=O)[C@@H](OC)/C=C\C=C(/C)C(=O)NC(=CC1=O)C2=O" in the records? 2.2
